The following binders are shown together with reported Kd values.
- target.or.system: RSV prefusion F (preF), DS-Cav1 (Respiratory Syncytial Virus, UniProt P03420 26-513)
- protocol.details: BLI, IgG on anti-human IgG sensor, 100 nM antigen, 1:1 fit
Number in nM, nothing else.

Answered cases to consult:
binder	scale.unit	observed.result
ADI-41549 (antibody, V domains shown, also called Ab 821; Antibody Number 821) VH: EVQLLESGGGVVQPGGSLRLSCAASGFTFSGYGMHWVRQAPGKGLEWVAFIQYNGSNKYYADSVKGRFTISRDNSKNTLYVQLNSLRAEDTAVYYCATDILVVPAATPLISYYFGMDVWGQGTTVTVSS VL: QSALTQPASVSGSPGQSITISCTGTSSDVGGYNYVSWYQQYPGKAPKLMIYEVTNRPSGVSNRFSGSKSGNTASLTISGLQAEDEADYYCCSYTSTNTRVFGTGTKVTVL	nM	0.408
ADI-41530 (antibody, V domains shown, also called Ab 802; Antibody Number 802) VH: QVQLVESGAEVKKPGASVKVSCRASGYTFSAYDINWVRQAPGQGLEWVGWMNPNSGNTGYALRFQGRVTMTRDTSINTAYMELSSLRSDDTAVYYCAAQLWYPNWGQGTLVTVSS VL: SYELTQPPSVSVGLGQTASITCGGNNIGSKSVHWYQQKPGQAPTLVIYRDTNRPSGIPERFSGSNSENTATLTISRAQAGDEADFYCQVSDNYSWVFGGGTKLTVL	nM	1.91
ADI-41504 (antibody, V domains shown, also called Ab 783; Antibody Number 783) VH: EVQLLESGPGLLKTSETLSLTCTVSDGSISGYYWTWIRQPPGKGLECIGYISYSGSTNYSPSLKSRVTISVDTSKNQFSLKLSSVTAADTAVYYCAKIGGYCNPTKCYGWFDPWGQGTLVTVSS VL: QPVLTQPPSVSGAPGQRVTISCTGSSSNIGAGYDVHWYQQLPGTAPKLLIFGNTNRPSGVPDRFSGSKSGTSASLAITGLQAEDEAAYYCQSYDSSLFYVVLGGGTKLTVL	nM	2.8

Query: I have this binder here, ADI-41551 (antibody, V domains shown, also called Ab 823; Antibody Number 823) VH: QVQLQESGGGVVQPGGSLRLSCAASGFTFSRHWMHWVRQVPGKGLVWVSRINSDESTIDYADSVKGRFTISRDNAKNTLYLQMNSLRAEDTAVYYCVRDMVAVPGTTGGDYWGQGTLVTVSS VL: SYELTQPPSVSVSPGQTADITCSGDKLGDKYACWYQQRAGQSPILVLYQDTRRPSGIPERFSGSNSGDTATLTISGTQAMDEADYYCQAWDSSTAWVFGGGTKLTVL , and I need its recorded Kd.
Reply: 13

Query: # lookup: Kd of ADI-41461 (antibody, V domains shown) VH: QVQLVQSGAEVKKPGASVKVSCRASGYTFSSYDINWVRQATGQGLEWMGWMSPNSANTGYAQKFQGRVTMTRDTSINTAYMELSSLSSEDTAVYYCARFLGYCSGGSCYPGYGMDVWGQGTTVTVSS VL: EIVLTQSPDSLAVSLGERATINCKSSQNVLYSSNNKDYLSWYQQKPGQPPKLLIYWASTRESGVPDRFSGSGSGTDFTLTINSLQAEDVAVYYCQQYYGTPYTFGQGTKLEIK
Reply: 2.3
